- Test system: Saccharomyces cerevisiae
- assay.notes: protein stability index of tFT-peptide fusion (C-terminal peptide) (PSI (0-1 scale)); higher = more stable (slower turnover)
- assay.setup: genetic background: wild type; temperature: 30 C
Property: protein stability index; scope: individual sequences
Answer field: number only, no words.

DRCKEAVDHLMS [ISM1 C-terminal 12 aa]
0.705
YNGGGKKLDGFW [YSP3 C-terminal 12 aa]
0.691
YAINSGARFDLS [HUL5 C-terminal 12 aa]
0.687

Ask: For the sequence LGKKKPPSRLFR [CDC25 C-terminal 12 aa] , what protein stability index is on record?
Result: 0.715

Ask: For the sequence shown here, NLKNGVTLESPE [UBP12 C-terminal 12 aa] , give the reported protein stability index.
Result: 0.689

Ask: Endpoint output: protein stability index of IVSFLSDETKSP [ECM18 C-terminal 12 aa] . Value?
Result: 0.714

Ask: Please report the recorded protein stability index for RKSTRSDNPHEA [CBF1 C-terminal 12 aa] .
Result: 0.687
